# experiment: Metabolic stability in human liver microsomes assessed as intrinsic clearance per mg of protein
# study conditions: microsomes
What microsomal CLint was measured for each of the following?
Numbers only, in µL/min/mg.

Here are 4 compounds together with their reported answers.
Note microsomal CLint for the compound shown: `CC[C@H]1CN(Cc2cc(Cl)ccc2OCC(=O)O)CCN1S(=O)(=O)c1ccccc1`
9

Note microsomal CLint for the compound shown: `C[C@H]1CN(Cc2cc(Cl)ccc2OC(C)(C)C(=O)O)CCN1S(=O)(=O)c1ccccc1`
5

Note microsomal CLint for the compound shown: `C[C@@H]1CN(Cc2cc(Cl)ccc2OCC(=O)O)CCN1S(=O)(=O)c1ccccc1`
8

Note microsomal CLint for the compound shown: `C[C@H]1CN(Cc2cc(Cl)ccc2OCC(=O)O)CCN1S(=O)(=O)c1ccccc1`
5

Proceeding to the next compound to report its microsomal CLint.
Note microsomal CLint for the compound shown: `O=C(O)COc1ccc(Cl)cc1CN1CCCN(S(=O)(=O)Cc2ccccc2)CC1`
5

* * *

# experiment: Metabolic stability in rat hepatocytes assessed as intrinsic clearance measured per 10^6 cells
property measured: hepatocyte CLint (µL/min/1e6 cells)
One number for each entry, in µL/min/1e6 cells.

Note hepatocyte CLint for the compound shown: `C[C@H]1CN(Cc2cc(Cl)ccc2OC(C)(C)C(=O)O)CCN1S(=O)(=O)c1ccccc1`
17

Go through the items and report each one's hepatocyte CLint.
1. C[C@@H]1CN(Cc2cc(Cl)ccc2OCC(=O)O)CCN1S(=O)(=O)c1ccccc1
2. C[C@H]1CN(Cc2cc(Cl)ccc2OCC(=O)O)CCN1C(=O)Cc1cccc(Cl)c1

1: 8; 2: 12

* * *

# experiment: Lipophilicity, log D of the compound at pH 7.4
# Format: physicochemical
# study conditions: buffer
What logD was measured for each of the following?
One number for each entry.

Here are 2 compounds together with their reported answers.
Note logD for the compound shown: `C[C@H]1CN(Cc2cc(Cl)ccc2CC(=O)O)CCN1S(=O)(=O)Cc1ccccc1`
1.1

Note logD for the compound shown: `C[C@H]1CN(Cc2cc(Cl)ccc2OCC(=O)O)CCN1C(=O)Cc1ccccc1`
0.2

Go through the items and report each one's logD.
1. O=C(O)COc1ccc(Cl)cc1CN1CCCN(S(=O)(=O)Cc2ccccc2)CC1
2. C[C@H]1CN(Cc2cc(Cl)ccc2CCC(=O)O)CCN1C(=O)Cc1ccccc1
3. C[C@H]1CN(Cc2cc(Cl)ccc2CC(=O)NS(C)(=O)=O)CCN1S(=O)(=O)Cc1ccccc1

1
1.5
0.4

* * *

# experiment: Lipophilicity, log D of the compound at pH 7.4
# Assay type: physicochemical
# study conditions: buffer
Everything with logD lower than 0.5 is False; everything else, including exactly 0.5, is True.

As a guide, the following entries are already answered.
Is reported logD greater than or equal to 0.5 here: CC1CN(Cc2cc(Cl)ccc2OCC(=O)O)CCN1C(=O)c1ccccc1 (racemic)
False

Is reported logD greater than or equal to 0.5 here: `C[C@H]1CN(Cc2cc(C(F)(F)F)ccc2OCC(=O)O)CCN1C(=O)Cc1ccc(F)cc1`
True

Is reported logD greater than or equal to 0.5 here: `C[C@H](Oc1ccc(Cl)cc1CN1CCN(C(=O)Cc2ccc(Cl)cc2)[C@@H](C)C1)C(=O)O`
True

Is reported logD greater than or equal to 0.5 here: `C[C@H]1CN(Cc2cc(Cl)ccc2CC(=O)O)CCN1C(=O)Cc1ccc(Cl)cc1`
True

Is reported logD greater than or equal to 0.5 here: `C[C@H]1CN(Cc2cc(Cl)ccc2OCC(=O)O)CCN1C(=O)Cc1ccccc1Cl`
True

Is reported logD greater than or equal to 0.5 here: O=C(O)CCn1c2c(c3ccccc31)C[C@H](NS(=O)(=O)c1ccc(F)cc1)CC2 [RAMATROBAN]
True

Is reported logD greater than or equal to 0.5 here: CC1CN(Cc2cc(Cl)ccc2OCC(=O)O)CCN1S(=O)(=O)c1ccccc1 (racemic)
False

Is reported logD greater than or equal to 0.5 here: `O=C(O)COc1ccc(C(F)(F)F)cc1CN1CCN(S(=O)(=O)c2ccccc2)CC1`
False

New cases:
Is reported logD greater than or equal to 0.5 here: `O=C(O)COc1ccc(Cl)cc1CN1CCN(S(=O)(=O)c2ccc(F)cc2)CC1`
True

Is reported logD greater than or equal to 0.5 here: `O=C(O)COc1ccc(Cl)cc1CN1CCN(S(=O)(=O)Cc2ccccc2)CC1`
False

Is reported logD greater than or equal to 0.5 here: `C[C@@H]1CN(Cc2cc(Cl)ccc2OCC(=O)O)C[C@H](C)N1C(=O)Cc1ccccc1`
True

Is reported logD greater than or equal to 0.5 here: `CC[C@H]1CN(Cc2cc(Cl)ccc2OCC(=O)O)CCN1S(=O)(=O)c1ccccc1`
False
